Catalogue of IC50 values
assayProcedure: Inhibition of MERS-CoV 3CLpro
Design: species or system Middle East respiratory syndrome-related coronavirus
measuredAttribute: IC50 (µM)

• CC(C)C[C@H](NC(=O)OCC1C[C@H]2CCC[C@@H](C1)C2)C(=O)N[C@@H](C[C@@H]1CCNC1=O)C(O)S(=O)(=O)O (single isomer, unassigned) = 0.049
• CC(C)C[C@H](NC(=O)OCC12CC3CC(CC(C3)C1)C2)C(=O)N[C@H](C=O)C[C@H]1CCNC1=O = 0.055
• CC(C)C[C@H](NC(=O)OCC1CC2CCC1C2)C(=O)N[C@H](C=O)C[C@@H]1CCNC1=O (single isomer, unassigned) = 0.063
• CC(C)C[C@H](NC(=O)OCC1CC2CCCC(C2)C1)C(=O)N[C@H](C=O)C[C@H]1CCNC1=O (stereo partly specified) = 0.052
• CC(C)C[C@H](NC(=O)OCC1CC2CCC1C2)C(=O)N[C@@H](C[C@@H]1CCNC1=O)C(O)S(=O)(=O)O (single isomer, unassigned) = 0.058
• CC(C)C[C@H](NC(=O)OCC12CC3CC(CC(C3)C1)C2)C(=O)N[C@@H](C[C@H]1CCNC1=O)C(O)S(=O)(=O)O (stereo partly specified) = 0.053

###

tgt: Replicase polyprotein 1ab (Severe acute respiratory syndrome coronavirus 2, UniProt P0DTD1)
Output met for records whose IC50 is lower than 300 nM, not met for records at or above 300 nM.

- CC(C)C[C@H](NC(=O)OCC12CC3CC(CC(O)(C3)C1)C2)C(=O)N[C@@H](C[C@H]1CCNC1=O)C(O)S(=O)(=O)O (some centres not stated): not met
- CC(C)C[C@H](NC(=O)OCC12CC3CC(CC(C3)C1)C2)C(=O)N[C@H](C=O)C[C@H]1CCNC1=O: met
- CC(C)C[C@H](NC(=O)OC1CC2CCC(C1)N2C(=O)OC(C)(C)C)C(=O)N[C@@H](C[C@H]1CCNC1=O)C(O)S(=O)(=O)O (some centres not stated): not met
- CC(C)C[C@H](NC(=O)OCCC12CC3CC(CC(C3)C1)C2)C(=O)N[C@H](C=O)C[C@H]1CCNC1=O: met
- CC(C)C[C@H](NC(=O)OC1CC2CCC(C1)N2C(=O)OCc1ccccc1)C(=O)N[C@H](C=O)C[C@H]1CCNC1=O (some centres not stated): not met
- CC(C)C[C@H](NC(=O)OCC12CC3CC(CC(C3)C1)C2)C(=O)N[C@@H](C[C@H]1CCNC1=O)C(O)S(=O)(=O)O (some centres not stated): met
- CC(C)C[C@H](NC(=O)OCC12CC3CC(CC(O)(C3)C1)C2)C(=O)N[C@H](C=O)C[C@H]1CCNC1=O: not met
- [2H]C([2H])(OC(=O)N[C@@H](CC(C)C)C(=O)N[C@@H](C[C@H]1CCNC1=O)C(O)S(=O)(=O)[O-])C12CC3CC(CC(O)(C3)C1)C2.[Na+] (some centres not stated): not met
- [2H]C([2H])(OC(=O)N[C@@H](CC(C)C)C(=O)N[C@H](C=O)C[C@H]1CCNC1=O)C12CC3CC(CC(C3)C1)C2: met
- [2H]C([2H])(OC(=O)N[C@@H](CC(C)C)C(=O)N[C@@H](C[C@H]1CCNC1=O)C(O)S(=O)(=O)[O-])C1CC2CCCC(C2)C1.[Na+] (some centres not stated): met
- [2H]C([2H])(OC(=O)N[C@@H](CC(C)C)C(=O)N[C@@H](C[C@H]1CCNC1=O)C(O)S(=O)(=O)[O-])C12CC3CC(CC(C3)C1)C2.[Na+] (some centres not stated): met
- [2H]C([2H])(OC(=O)N[C@@H](CC(C)C)C(=O)N[C@H](C=O)C[C@H]1CCNC1=O)C1CC2CCCC(C2)C1 (some centres not stated): met
- [2H]C([2H])(OC(=O)N[C@@H](CC(C)C)C(=O)N[C@H](C=O)C[C@H]1CCNC1=O)C12CC3CC(CC(O)(C3)C1)C2: not met
- CC(C)C[C@H](NC(=O)OC1CC2CCC(C1)N2C(=O)OC(C)(C)C)C(=O)N[C@H](C=O)C[C@H]1CCNC1=O (some centres not stated): not met
- CC(C)C[C@H](NC(=O)OCC1CC2CCCC(C2)C1)C(=O)N[C@H](C=O)C[C@H]1CCNC1=O (some centres not stated): met
- CC(C)C[C@H](NC(=O)OC1CC2CCC(C1)N2C(=O)OCc1ccccc1)C(=O)N[C@@H](C[C@H]1CCNC1=O)C(O)S(=O)(=O)O (some centres not stated): not met
- CC(C)C[C@H](NC(=O)OCCC12CC3CC(CC(C3)C1)C2)C(=O)N[C@@H](C[C@H]1CCNC1=O)C(O)S(=O)(=O)O (some centres not stated): met
